measurement_description: gradient 5% acetonitrile 3 min, to 50% in 2 min, to 85% in 15 min, held 3 min, 100 µL/min
measurement_parameters: column: Zorbax Extend-C18 2.1 x 50 mm; eluents: water / acetonitrile, 0.1% formic acid
observed_property: RP-LC retention time (s)
// note: answer is a bare numeric in s

Q: Using the record for Cc1cc(C(=O)N2CCC(c3cc(N)on3)CC2)no1 , state its measured RP-LC retention time.
Result: 625

Q: Give me measured RP-LC retention time, please, for this compound: Cc1ccc(-c2cn3cccnc3n2)cc1NC(=O)c1ccccc1Br
Result: 682

Q: Indicate its recorded RP-LC retention time; the compound in question is COC(=O)c1cc(OCC(=O)NCc2ccc3c(c2)OCO3)c2cc(F)ccc2n1
Result: 785

Q: For the compound COc1ccc(-c2c(C)noc2NC(C)=O)cc1S(=O)(=O)Nc1ccc(Cl)cc1F , report RP-LC retention time.
Result: 807

* * *

measurement_description: gradient 5% acetonitrile 3 min, to 50% in 2 min, to 85% in 15 min, held 3 min, 100 µL/min
measurement_parameters: column: Zorbax Extend-C18 2.1 x 50 mm; eluents: water / acetonitrile, 0.1% formic acid
observed_property: RP-LC retention time (s)
Numbers only here, please. The scale is s.

# molecule, readout_unit, RP-LC retention time
rows = [
    ("CCCCN1CC(=O)N(c2ccc(OC)cc2)[C@@H]2CS(=O)(=O)C[C@@H]21", "s", 719),
    ("CCCNc1cc(N2CCC(CCC(=O)NCc3cc(F)cc(F)c3)CC2)ncn1", "s", 704),
    ("Cc1cccc(Sc2nccnc2N2CCC(C(=O)NC3CCCCC3)CC2)c1", "s", 1150),
    ("O=C(CCNc1c(-c2ccc(F)cc2)nc2cnccn12)NCc1ccc2c(c1)OCO2", "s", 716),
    ("CC(C)Oc1ccccc1Cn1c(=O)oc2ccccc21", "s", 1010),
    ("NC(=O)C1CCN(C(=O)c2ccc(Cl)c(Cl)c2)CC1", "s", 656),
    ("c1ccc(-c2nc(C3CCNC3)no2)cc1 (stereo not given)", "s", 591),
    ("CCN1C(=O)COc2ccc(-c3noc(-c4cc(OC)cc(OC)c4)n3)cc21", "s", 1040),
    ("Cc1nc(N2CCN(Cc3ccc4c(c3)OCO4)CC2)nc2c1C(=O)CC(c1cccs1)C2 (stereo not given)", "s", 753),
    ("CCn1cc(-c2ccc(OC)cc2)cc1C(=O)NC(C)c1cccnc1 (stereo not given)", "s", 693),
]

Q: Provide RP-LC retention time value for the following molecule: COc1ccc(-c2ccnn2-c2ccc(SCc3ccccc3)nn2)cc1
Result: 1320

* * *

measurement_description: gradient 5% acetonitrile 3 min, to 50% in 2 min, to 85% in 15 min, held 3 min, 100 µL/min
measurement_parameters: column: Zorbax Extend-C18 2.1 x 50 mm; eluents: water / acetonitrile, 0.1% formic acid
observed_property: RP-LC retention time

Recorded results for 4 compounds are shown here.
# compound, observed_property, reported_measurement
measured = [
    ("Cc1cc(=O)n(CC(=O)Nc2cc(F)ccc2C)c(N2CCCC2)n1", "RP-LC retention time", "635 s"),
    ("OCCN1CCN(c2ncnc3c2cnn3-c2ccc(Cl)cc2)CC1", "RP-LC retention time", "650 s"),
    ("CCCS(=O)(=O)N1CC[C@@H]2COCCN(Cc3ccccc3)[C@@H]2C1", "RP-LC retention time", "626 s"),
    ("COc1ccc(-c2nc(C)cc(C)c2CNC(=O)CC2CCCC2)cc1", "RP-LC retention time", "639 s"),
]

Shifting focus to the compound that follows.
Q: Item CCOc1ccc(N2CC(c3nc(-c4ccncc4)no3)CC2=O)cc1 (stereo not given) : provide RP-LC retention time
Result: 736 s

* * *

measurement_description: gradient 5% acetonitrile 3 min, to 50% in 2 min, to 85% in 15 min, held 3 min, 100 µL/min
measurement_parameters: column: Zorbax Extend-C18 2.1 x 50 mm; eluents: water / acetonitrile, 0.1% formic acid
Below is a list of entries, each paired with its recorded RP-LC retention time value.
Just the number in s, nothing appended.

# compound, readout_unit, RP-LC retention time
rows = [
    ("COc1cccc(N2CCN(S(=O)(=O)c3cn(C(C)C)c4ncccc34)CC2)c1", "s", 1060),
    ("Cc1ccc(OCc2nn3c(-c4ccoc4C)nnc3s2)cc1C", "s", 1090),
    ("Cc1sc(NC(=O)CCCc2nc(-c3ccccc3)no2)nc1-c1ccc(Cl)cc1", "s", 1190),
]

Let us examine a further case.
Q: Dear colleague, please send me the reported RP-LC retention time for CC(C)Oc1ccc(CNS(=O)(=O)c2cc(-c3nc(C(C)C)cs3)cs2)cc1 when you can.
Result: 1210

* * *

measurement_description: gradient 5% acetonitrile 3 min, to 50% in 2 min, to 85% in 15 min, held 3 min, 100 µL/min
measurement_parameters: column: Zorbax Extend-C18 2.1 x 50 mm; eluents: water / acetonitrile, 0.1% formic acid
observed_property: RP-LC retention time
Express the reported value numerically, then name its unit.

Solved cases (3 shown):
# compound, observed_property, reported_measurement
measured = [
    ("O=S(=O)(NCC(O)C1CCCCC1)c1cccc2ccccc12 (centres undefined)", "RP-LC retention time", "902 s"),
    ("COc1cc(O)ccc1-c1nc2cc(C)ccn2c1Nc1ccccc1C", "RP-LC retention time", "673 s"),
    ("CCn1ccc2sc(C)c(C(=O)NCc3cccc(OC)c3)c2c1=O", "RP-LC retention time", "785 s"),
]

Q: Quote RP-LC retention time reported for COCCN1C(=O)c2ccccc2C(C(=O)NCCN2CCOCC2)C1c1ccc(F)cc1 (centres undefined) please.
Result: 628 s

Q: Give the value of RP-LC retention time reported for the following: COc1ccc(-c2cc(N3CCC(NC(=O)c4ccccc4Br)C3)n[nH]2)cc1 (centres undefined)
Result: 688 s

Q: Provide one value: measured RP-LC retention time of CCc1ccc(NC(=O)N2CCC(CN3CCCC(C)C3)CC2)cc1 (centres undefined)
Result: 662 s

* * *

measurement_description: gradient 5% acetonitrile 3 min, to 50% in 2 min, to 85% in 15 min, held 3 min, 100 µL/min
measurement_parameters: column: Zorbax Extend-C18 2.1 x 50 mm; eluents: water / acetonitrile, 0.1% formic acid
Each entry gets NO if its RP-LC retention time stays under 800 s, and YES if its RP-LC retention time is 800 s or above.

Consider the following illustrative entries.
# compound, category
records = [
    ("CCCN1C(=O)COc2ccc(-c3csc(NC(=O)c4cc(OC)c(OC)c(OC)c4)n3)cc21", "YES"),
    ("CN(C)C[C@@H]1CN(Cc2ccccc2)C[C@H]1NS(=O)(=O)c1cccc(F)c1", "NO"),
    ("Cc1cccc(N2CCN(c3ccc(SCC(=O)Nc4cccc(F)c4)nn3)CC2)c1", "YES"),
]

Q: Quick check, RP-LC retention time >= 800 s? Cc1ccc(C(=O)Nc2ccc(-c3nc(Cn4cccn4)c(C)o3)cc2)s1
Result: YES

Q: Is reported RP-LC retention time greater than or equal to 800 s here: CCOC(=O)C1=C(C)NC2=C(C(=O)C(C(=O)OC)C(C)C2)C1c1ccccc1OCC (stereo not drawn)
Result: YES

Q: # bool: RP-LC retention time of CCn1c(=O)c(-c2noc(C(=O)N3CCN(c4ccccn4)CC3)n2)nn(-c2ccccc2)c1=O >= 800 s
Result: NO

Q: Evaluate CC(C)NC(=O)N1CCCC(c2cccc(C(=O)NCc3ccccc3F)c2)C1 (stereo not drawn) : RP-LC retention time at minimum 800 s?
Result: YES

Q: Hi team, for O=C(Cc1ccccc1Cl)NCC1CCN(C(=O)c2ccccc2F)CC1 , is the recorded RP-LC retention time at or above 800 s?
Result: NO

* * *

This section presents compounds with their documented RP-LC retention time values.
measurement_description: gradient 5% acetonitrile 3 min, to 50% in 2 min, to 85% in 15 min, held 3 min, 100 µL/min
measurement_parameters: column: Zorbax Extend-C18 2.1 x 50 mm; eluents: water / acetonitrile, 0.1% formic acid
Please respond with the number in s and leave the unit unwritten.

Solved entries:
# compound, observed_property, reported_measurement
measured = [
    ("CCOc1ccc(-c2noc(Cn3cnc4c(cnn4-c4ccccc4)c3=O)n2)cc1OC", "RP-LC retention time", 980),
    ("Cc1oc(-c2[nH]ncc2C(=O)N2CCCCC2)cc1S(=O)(=O)NCc1ccncc1", "RP-LC retention time", 575),
    ("Cc1cccc(CNC(=O)C2CCN(S(=O)(=O)c3ccc4c(c3)NC(=O)CO4)CC2)c1", "RP-LC retention time", 794),
    ("Cc1cccc(-c2nc(-c3nnn(-c4ccccc4)c3C)no2)c1", "RP-LC retention time", 1140),
]

Q: Provide RP-LC retention time value for the following compound: Cc1nc2cc(-c3noc(C4CC(=O)N(c5ccccc5)C4)n3)ccc2n(C2CCCC2)c1=O (stereo not drawn)
Result: 1030

Q: Let me know recorded RP-LC retention time for Cc1cc(C)cc(NS(=O)(=O)c2cc(-c3nc(C)cs3)sc2C)c1 , thanks.
Result: 1080

Q: Identify the reported RP-LC retention time for the following entry. CCc1ccccc1NC(=O)N1CCN(C2=CC3=NC(CC)CN3C=N2)CC1 (stereo not drawn)
Result: 642

Q: Give me measured RP-LC retention time, please, for this compound: O=C(NCc1cccc(Cl)c1)C1=C2CCCN2c2ccc(F)cc2S1(=O)=O
Result: 933

Q: Please look at this compound and report its RP-LC retention time: COc1ccccc1Nc1c(-c2ccc(N(C)C)cc2)nc2cnccn12
Result: 833
